Assignment: determine reported IC50 for the given molecules.
target system: CXCR4 (Homo sapiens)
Sequence (P61073 whole entry): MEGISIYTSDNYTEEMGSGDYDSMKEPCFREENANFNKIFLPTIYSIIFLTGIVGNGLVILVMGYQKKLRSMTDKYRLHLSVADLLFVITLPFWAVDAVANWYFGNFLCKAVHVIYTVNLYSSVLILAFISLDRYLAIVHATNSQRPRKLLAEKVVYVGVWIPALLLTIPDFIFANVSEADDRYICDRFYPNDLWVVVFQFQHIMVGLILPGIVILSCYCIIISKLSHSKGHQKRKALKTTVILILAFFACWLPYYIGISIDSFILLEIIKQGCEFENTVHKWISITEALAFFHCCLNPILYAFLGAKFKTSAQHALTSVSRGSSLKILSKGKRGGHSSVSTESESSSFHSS
run description: FLIPR Tetra calcium mobilization assay
Format: cell-based
cond: Human CD4+ T-Cells; CXCL12 added; FLIPR Calcium 4 assay kit
Give bare numbers, in nM.

{"columns": ["molecule", "IC50 / nM"],
 "data": [
  ["Cc1nc(CN(C)c2cc(NS(C)(=O)=O)cc3cccnc23)cc(N2CCN(C)CC2)n1 [Compound D58]", 55],
  ["Cc1nc(CN(C)c2cccc3cccnc23)c(C)c(N2CCN(C)CC2)n1 [Compound D33]", 0.51],
  ["Cc1nc(CN(c2cccc3cccnc23)C2CC2)cc(N2CCN(C)CC2)n1 [Compound D26]", 2.3],
  ["CN1CCN(c2cc(CN(C)c3cccc4cccnc34)nc(N(C)C)n2)CC1 [Compound D11]", 1700],
  ["C[C@@H](c1ccccn1)N(C)Cc1cc(N2CCN(C)CC2)nc(CO)n1 [Compound A81]", 4.5]
]}

Hi team, please reply with IC50 for each item in this list.
1. Cc1nc(CN2CCC[C@H]2c2ncccc2C)c(C#N)c(N2CCN(C)CC2)n1 [Compound C34]
2. C[C@@H](c1ccccn1)N(C)Cc1nc2cccc(N3CCN4CCC[C@@H]4C3)n2c1CO [Compound A100]
3. Cc1nc(CN(C)c2cccc3cccnc23)cc(N2CCN(CCO)CC2)n1 [Compound D5]
4. C[C@@H](c1ccccn1)N(C)Cc1nc2cccc(N3CCN(C)CC3)n2c1CO [Compound A96]
5. CCN(Cc1cc(N2CCN(C)CC2)nc(C)n1)c1cccc2cccnc12 [Compound D25]
6. CN1CCN(c2cc(CN(C)c3cccc4cccnc34)nc(C3CC3)n2)CC1 [Compound D10]
7. Cc1nc(CN(CCCC(=O)O)c2cccc3cccnc23)cc(N2CCN(C)CC2)n1 [Compound D30]

result:
1: 1.8; 2: 0.29; 3: 2.1; 4: 0.086; 5: 16; 6: 2.9; 7: 9.3

Go through the list and state IC50 for each entry.
1. Cc1nc(CN(C)c2cc(C#N)cc3cccnc23)cc(N2CCN(C)CC2)n1 [Compound D46]
2. Cc1nc(CN(C)[C@H]2CCCc3cccnc32)cc(N2CCN(C)CC2)n1 [Compound A42]
3. Cc1nc(CN(C)c2cc(F)c(F)c3cccnc23)cc(N2CCN(C)CC2)n1 [Compound D20]
4. Cc1nc(CN(C)c2ccc(F)c3cccnc23)cc(N2CCN(C)CC2)n1 [Compound D19]
5. Cc1nc(CN(C)c2cccc3cccnc23)c(C#N)c(N2CCN(C)CC2)n1 [Compound D36]

result:
[53, 0.021, 3.1, 0.4, 3.6]
